The origin of these recorded values is ChEMBL document CHEMBL5579900.

biological target: Cholinesterase (Equus caballus, UniProt P81908)
Sequence (P81908 whole entry): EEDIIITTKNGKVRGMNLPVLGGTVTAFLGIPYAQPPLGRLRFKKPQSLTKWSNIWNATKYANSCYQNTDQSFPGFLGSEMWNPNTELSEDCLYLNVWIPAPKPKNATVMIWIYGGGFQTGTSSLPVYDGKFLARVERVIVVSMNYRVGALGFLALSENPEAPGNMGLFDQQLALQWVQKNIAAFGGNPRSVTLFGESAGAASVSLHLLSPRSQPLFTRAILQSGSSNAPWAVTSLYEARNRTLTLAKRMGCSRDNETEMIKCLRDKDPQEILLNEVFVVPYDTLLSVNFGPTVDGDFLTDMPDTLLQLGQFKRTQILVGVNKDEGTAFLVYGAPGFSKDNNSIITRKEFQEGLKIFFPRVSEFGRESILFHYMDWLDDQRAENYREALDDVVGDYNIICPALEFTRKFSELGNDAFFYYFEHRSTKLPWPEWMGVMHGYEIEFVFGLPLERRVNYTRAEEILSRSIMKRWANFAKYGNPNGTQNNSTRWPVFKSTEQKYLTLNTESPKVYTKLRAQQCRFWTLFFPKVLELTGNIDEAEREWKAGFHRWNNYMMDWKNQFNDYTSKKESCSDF
IC50 strictly less than 0.3 nM = yes. Otherwise no.

COC(=O)[C@H](Cc1ccc(OCCCCCNc2c3c(nc4ccccc24)CCCC3)cc1)NC(=O)OC(C)(C)C	no

A record lists "c1ccc2c(NCCCCCCNCCc3c[nH]cn3)c3c(nc2c1)CCCC3" . Is its IC50 below 0.3 nM?
no

I'd appreciate it if you could check whether "COC(=O)[C@H](Cc1c[nH]cn1)NCCCCCCNc1c2c(nc3ccccc13)CCCC2" has IC50 smaller than 0.3 nM.
no

Take the compound "N[C@@H](CCCCNC(=O)OCc1ccccc1)C(=O)NCCCCCNc1c2c(nc3ccccc13)CCCC2" and say whether its IC50 is less than 0.3 nM.
no

Given the entry "N[C@@H](Cc1c[nH]cn1)C(=O)NCCCNc1c2c(nc3ccccc13)CCCC2" , would its reported IC50 be below 0.3 nM?
no

Lab log: compare recorded IC50 with 0.3 nM; is it strictly lower for "N[C@@H](Cc1c[nH]cn1)C(=O)NCCCCNc1c2c(nc3ccccc13)CCCC2" ?
no

Please state whether IC50 is below 0.3 nM for "COC(=O)[C@H](Cc1ccccc1)NCCCCCNc1c2c(nc3ccccc13)CCCC2"
no

Record "CC(C)(C)OC(=O)N[C@@H](Cc1ccccc1)C(=O)NCCCCCNc1c2c(nc3ccccc13)CCCC2" : is its IC50 strictly below 0.3 nM?
no

Does "COC(=O)[C@@H](N)Cc1ccc(OCCCCCNc2c3c(nc4ccccc24)CCCC3)cc1" have IC50 strictly under 0.3 nM?
yes

Does "N[C@@H](Cc1c[nH]cn1)C(=O)NCCCCCNc1c2c(nc3ccccc13)CCCC2" have IC50 strictly under 0.3 nM?
no

Is 0.3 nM strictly greater than the compound's reported IC50? compound: "COC(=O)[C@H](Cc1ccc(OCCCCCCNc2c3c(nc4ccccc24)CCCC3)cc1)NC(=O)OC(C)(C)C"
yes

Take the compound "COC(=O)[C@H](CCCCNC(=O)OCc1ccccc1)NCCCCCNc1c2c(nc3ccccc13)CCCC2" and say whether its IC50 is less than 0.3 nM.
yes
